Reported α-Helix is given for each of the following molecules.
- assay.target: α-glucosidase (Saccharomyces cerevisiae, UniProt P53341)
- Construct: purchased Sigma-Aldrich
- Sequence (P53341 whole entry): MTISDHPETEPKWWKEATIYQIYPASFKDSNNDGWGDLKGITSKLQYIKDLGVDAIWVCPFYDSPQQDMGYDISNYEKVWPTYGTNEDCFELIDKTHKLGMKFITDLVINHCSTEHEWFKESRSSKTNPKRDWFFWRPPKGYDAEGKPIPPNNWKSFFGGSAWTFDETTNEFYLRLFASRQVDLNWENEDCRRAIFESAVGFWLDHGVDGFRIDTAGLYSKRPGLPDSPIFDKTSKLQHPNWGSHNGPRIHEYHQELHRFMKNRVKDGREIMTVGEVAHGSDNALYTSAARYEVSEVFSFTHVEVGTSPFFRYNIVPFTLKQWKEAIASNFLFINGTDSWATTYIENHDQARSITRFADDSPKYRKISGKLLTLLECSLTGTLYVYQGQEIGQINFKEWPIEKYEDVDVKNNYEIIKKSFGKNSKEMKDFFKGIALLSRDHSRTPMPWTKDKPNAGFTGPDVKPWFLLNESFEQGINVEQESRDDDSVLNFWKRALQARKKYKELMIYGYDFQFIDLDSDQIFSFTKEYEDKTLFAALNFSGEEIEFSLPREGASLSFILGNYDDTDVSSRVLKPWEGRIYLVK
- test: CD spectra, secondary structure contents of α-glucosidase
- Assay type: binding
- test.settings: molar ratio [α-Glu]:[Comp.] 1:3
Give your result in % as a bare value.

Field: example entries. Status: answers known.
INSERT INTO measurements (smiles_representation, assay_target, reported) VALUES
  ('O=C1c2cc(Cl)ccc2-n2c1c(-c1ccccc1)c1ccccc1c2=O', 'α-glucosidase (Saccharomyces cerevisiae, UniProt P53341)', 11.20),
  ('Cc1ccc2c(c1)-n1c(c(-c3ccccc3)c3cc(C)ccc3c1=O)C2=O', 'α-glucosidase (Saccharomyces cerevisiae, UniProt P53341)', 12.80),
  ('O=C1c2ccccc2-n2c1c(-c1ccc3ccccc3c1)c1ccccc1c2=O', 'α-glucosidase (Saccharomyces cerevisiae, UniProt P53341)', 7.80),
  ('O=C1c2ccccc2-n2c1c(-c1ccccc1)c1ccc(F)cc1c2=O', 'α-glucosidase (Saccharomyces cerevisiae, UniProt P53341)', 12.80);

Field request: α-Helix | item: CN(C)c1ccc(-c2c3n(c(=O)c4ccccc24)-c2ccccc2C3=O)cc1 13.10

Attribution: paper PMC10343752
